Experiment: yeast display, Sf9 membrane polyspecificity reagent, FACS + sequencing; frameworks hold sequencing errors
reported metric: polyreactivity (PSR sort gate)

sequence content | result
QVQLVESGGGLVQAGGSLRLSCAASGFIFAAYAMGWYRQAPGKERELVAAISYSGDRTYYADSVKGRFTISRDNAKNTVYLQMNSLKPEDTAVYYCDADARAYTYDYWGQGTQVTVSS | high polyreactivity
QVQLVESGGGLVQAGGSLRLSCAASGRIFFPYAMGWYRQAPGKERELVAVITSGGTTYYADSVKGRFRISRDNAKNTVYLQMNSLKTEDTAVYYCAVHWYSYRYAATMDYWGQGTQVTVSS | high polyreactivity
QVQLVESGGGLVQAGGSIRLSCAASGSIFYHNAMGWYRPAPGKERELVAAITWSGSTTYYADSVKGRFTISRDNGKNTVYLQMNSLKPEDTAVYYCNAGNRHGHYDYWGQGTQVTVSS | low polyreactivity
QVQIVESGGGLVQAGGSLRLSCAASGRTFTHYAMGWYRQAPGKERELVAAISSGGGTYYADSVKGRFTIARDNAKKTVYLQMNSLKPEDTAVYYCNADYSNYLDPFRTYGYWGQGTQVTVSS | low polyreactivity
QVQLVESGRGLVQAGGSLRLSCAASGRTFAVSTMGWYRKAAGQERELVATISWSGGSTYYADSVKGRFTISRDNAKNTVYLQMNSLKPEDTAVYFCNADFTWGSYERDYWGQGTQGTVSS | high polyreactivity
QVQVVESGGGLVQPGGSLRLSCAASGFIFFRYDMGWYRQAPGKERELVAAITDDGSTYADSVKGRFTISRDNAKNNVYLQMNSLKPEDTAVYYCNVQSKSSYWWYGYDYWGQGTQVTVSS | low polyreactivity
QVQLVESGGGLVQAGGSLRLSCAASGRTFPYYAMGWYRQAPGKERELVAAISSSGGSTYYADSVKGRFTISRDNAKNTVNLQMNSLKPEDTAVYYCAARAPYSYSGYGYWGQGTQVTVSS | high polyreactivity
QVQLVESGGGLVQAGGSLRLSCAASGFIFSTYTMGWYRQAPGKERELVAAISWRGGRTYYADSVKGRFTISRDNAKNTVYLQMNSLKPEDTAVYYCADYGTIRSSTAVEPLYNHWGQGTQVTVSS | high polyreactivity
QVQLVESGGGLVQAGGSLRLSCAASGSTIRYYAMGWYRQAPGKERELLAAITKSGGSTYYADSVKGRFTISRDNAKNTVYLQMNSLKPEDTAVYFCAAVRRWYYPALSEHDYCGQGTQVTVSS | low polyreactivity
QVQLVESGRGLVHAGGSLRLSCAASGFILGVNERGWYRQAPGKERELVAAISQGDGSKYYADSVKGRFTISRDNANNTVYLQMNSLKPEDTAVYYCNAELYRDLRGYDHWGQGTQVTVSS | low polyreactivity
QVQLVESGGGLVQAGGSLRVSCAASGSIFIRYAMGWYRQAPGKERELVAAIRSSGGSTYADSVKGRFTISRDNAKNTVYLQMISLKPEDTAVYYCAAGRSSKNSYSYPYYYWGQGTQVTVSS | high polyreactivity
